test: in vivo; settings: cynomolgus monkey, po, 0.3 mg/kg
READOUT: Tmax (min)
Provide only the numeric value, understood in min.

Given the compound `Cc1noc([C@@]23CNC[C@@H]2C3)n1` , what is its reported Tmax?
25

----------
test: Plasma concentrations during 7-day oral dosing in beagle dogs; assay type: in vivo; details: male, beagle, dog, in vivo, po, 1.5 mg/kg/day, Plasma concentration of Compound 1, Mean
READOUT: concentration at 1 h (ng/mL)
Provide only the numeric value, understood in ng/mL.

Given the compound `Cc1noc([C@@]23CNC[C@@H]2C3)n1` , what is its reported concentration at 1 h?
378

----------
test: Plasma pharmacokinetics after single-dose intravenous administration in rats; format: in vivo, Sprague Dawley rats; details: male, Sprague Dawley, rat, in vivo, iv, 1.5 mg/kg, T1/2 of Compound 1
READOUT: half-life (min)
Provide only the numeric value, understood in min.

Given the compound Cc1noc([C@@]23CNC[C@@H]2C3)n1 [Compound 1] , what is its reported half-life?
49.8

----------
assay: Plasma pharmacokinetics after single-dose intravenous administration in rats; format: in vivo, Sprague Dawley rats; settings: male, Sprague Dawley, rat, in vivo, iv, 1.5 mg/kg, VSS of Compound 1
READOUT: Vd (L/kg)
Provide only the numeric value, understood in L/kg.

Given the compound `Cc1noc([C@@]23CNC[C@@H]2C3)n1` , what is its reported Vd?
1.71

----------
assay: Plasma pharmacokinetics after single-dose intravenous administration in rats; type: in vivo, Sprague Dawley rats; settings: male, Sprague Dawley, rat, in vivo, iv, 1.5 mg/kg, CL of Compound 1
READOUT: clearance (mL/min/kg)
Provide only the numeric value, understood in mL/min/kg.

Given the compound Cc1noc([C@@]23CNC[C@@H]2C3)n1 [Compound 1] , what is its reported clearance?
27.2

----------
assay: in vivo; settings: cynomolgus monkey, po, 1 mg/kg
READOUT: half-life (h)
Provide only the numeric value, understood in h.

Given the compound `Cc1noc([C@@]23CNC[C@@H]2C3)n1` , what is its reported half-life?
2.28

----------
test: Single ascending dose study: pharmacokinetics (plasma, CSF); assay type: in vivo; conditions: human, in vivo; single oral doses, healthy subjects; read-out: median tmax
READOUT: Tmax

Given the compound Cc1noc([C@@]23CNC[C@@H]2C3)n1 [Compound 1] , what is its reported Tmax?
39 to 70.2 min

----------
assay: in vivo; conditions: cynomolgus monkey, po, 1 mg/kg
READOUT: AUC(0-t) (ng·h/mL)
Provide only the numeric value, understood in ng·h/mL.

Given the molecule Cc1noc([C@@]23CNC[C@@H]2C3)n1 [Compound 1] , what is its reported AUC(0-t)?
982

----------
experiment: Plasma concentrations during 7-day oral dosing in beagle dogs; type: in vivo; details: male, beagle, dog, in vivo, po, 1.5 mg/kg/day, Plasma concentration of Compound 1, Mean
READOUT: concentration at 2 h (ng/mL)
Provide only the numeric value, understood in ng/mL.

Given the compound `Cc1noc([C@@]23CNC[C@@H]2C3)n1` , what is its reported concentration at 2 h?
288

----------
Test: in vivo
Conditions: cynomolgus monkey, po, 0.3 mg/kg
Procedure: The following example characterized the pharmacokinetics (PK) of Compound 1 in Cynomolgus Monkey following single oral (PO) Compound 1 dose administration. The compound was administered via oral gavage at 0.3 mg/kg and 1 mg/kg, formulated as solution in saline. After dosing, plasma was collected to characterize the PK profiles of Compound 1.
READOUT: Cmax (µg/mL)
Provide only the numeric value, understood in µg/mL.

Given the compound `Cc1noc([C@@]23CNC[C@@H]2C3)n1` , what is its reported Cmax?
0.216

Data origin, for the record: patent US20250032460A1
